Test system: SF-295 CNS
protocolDetails: NCI-60 one-dose screen, 48 h (100 = growth as untreated, 0 = no growth, -100 = all killed)
assayConditions: 10 µM
This is part of a sample that, as a whole, favours compounds with a hit. Of some 83,000 tested, about 20% had one in any assay.
Each record here notes measured growth.
Reply numerically in %, unit not repeated.

Worked cases, answers included:
[
  {
    "compound": "COc1cc(-c2cc(C(=O)N3CCN(C(=O)c4ccccc4NCc4ccco4)CC3)nc3cc(-c4ccccc4)nn23)cc(OC)c1OC",
    "unitText": "%",
    "growth": 49.7
  },
  {
    "compound": "COc1ccc2c(c1)O/C(=C\\c1ccc([N+](=O)[O-])s1)C2=O",
    "unitText": "%",
    "growth": 69
  },
  {
    "compound": "COc1ccc(-c2nc3ncccn3c2-c2nnc(-c3ccsc3C)o2)cc1",
    "unitText": "%",
    "growth": 80.3
  },
  {
    "compound": "COc1cc(-c2cc(/C=C3\\C(=O)Nc4ccc(Cl)cc43)[nH]n2)cc(OC)c1OC",
    "unitText": "%",
    "growth": 46.9
  }
]

The record that follows has no growth shown yet.
Incoming: # returns recorded growth (system: SF-295 CNS) for CC1(O)CCC2CC3OC3(C)CCC3OC3(C)CCC1C2(C)C (stereo not given)
Outgoing: 89.6
